Attribution: patent US12673057B2

Test system: PC3, DU145, and 22Rv1 cells
Assay: Clonogenic assay (anchorage-dependent colony formation)
Assay type: cell-based, human
Settings: Homo sapiens, read-out: IC50 of colony formation of PC cells
Experimental: Two milliliters of PC3 (250/mL), DU145 (250/mL), or 22Rv1 (1,000/mL) cells were seeded in 6-well plates and cultured in 10% FBS-containing media, which were replaced every 2-3 days. After 10-14 days, cells were fixed in 4% paraformaldehyde for 15 min and rinsed with DPBS for three times. Cells were stained with 120 μg/mL crystal violet solution. Cell colonies were quantified under an All-in-one microscope (Keyence) as described in the migration assay.
outcome_measure: IC50

Quick note, IC50 for Cc1ccc(C(=O)Nc2ccc(CN3CCN(C)CC3)c(C(F)(F)F)c2)cc1C#Cc1cnc2cccnn12 landed at < 1000 nM
